System: rhIFNγ stimulated STAT-3 phosphorylation in the A549 human epithelial cell line
Experiment: A549 Cell Assay: Inhibition of pSTAT3
Format: cell-based
Conditions: Homo sapiens; A549 cells
recordedMetric: IC50 (nM)

• CN(c1ccc(F)cc1CNc1nc(-c2cc(F)c(O)cc2CC(F)(F)F)cc2[nH]nc(C(N)=O)c12)S(C)(=O)=O = 31.5
• CNC(=O)c1n[nH]c2cc(-c3cc(F)c(O)cc3CC(F)(F)F)nc(NCc3c(F)cccc3N(C)S(C)(=O)=O)c12 = 97
• CCc1cc(O)c(F)cc1-c1cc2[nH]nc(C(=O)NC)c2c(NCc2ccccc2N(C)S(N)(=O)=O)n1 = 35.6
• CN(c1ccccc1CNc1nc(-c2cc(F)c(O)cc2CC(F)(F)F)nc2[nH]nc(C(N)=O)c12)S(C)(=O)=O = 724
• CNC(=O)c1n[nH]c2cc(-c3cc(F)c(O)cc3C3CC3)nc(NCc3ccccc3N(C)S(C)(=O)=O)c12 = 47.4

(P) CCN(c1ncccc1CNc1nc(-c2cc(F)c(O)cc2CC(F)(F)F)cc2[nH]nc(C(=O)NC)c12)S(C)(=O)=O
(Q) CNC(=O)c1n[nH]c2cc(-c3cc(F)c(O)cc3CC(F)(F)F)nc(NCc3cc(C)ccc3N(C)S(C)(=O)=O)c12
Request: When P and Q are compared, which has the higher number for IC50? Use the label to indicate which entry you chose.
Result: Q
